Molecular target: T1, PD-1 molecule (refolded, purified and biotinylated PD-1 of Example 2) (UniProt Q15116 33-150, biotinylated with BirA enzyme (site not stated))
T1 construct: also called Programmed Death-1
T1 sequence (Q15116 33-150 limits assumed): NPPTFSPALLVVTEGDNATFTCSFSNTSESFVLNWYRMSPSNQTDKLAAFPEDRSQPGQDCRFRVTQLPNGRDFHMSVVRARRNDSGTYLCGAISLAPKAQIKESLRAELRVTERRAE
Assay: SPR (BIAcore T200), single-cycle kinetics; biotinylated PD-1 captured via streptavidin, PDL-1 variant in solution
# reported koff; entries follow
// return numeric value only (unit: s⁻¹, not printed)

Below, 2 binders whose answers are already recorded.
high affinity PDL-1 molecule L3C7d (ligand) WTVTVPKDLYVVEYGSNMTIECKFPVEKQLDLAALEVHWFMEDKNIFSFVHGEEDLKVQHSSYRQRARLLKDQLSLGNAALQITDVKLQDAGVYTCLIGYKGGADYKRITVKVNAPYNKINQRILVVDPVTSEHELTCQAEGYPKAEVIWTSSDHQVLSGKTTTTNSKREEKLFNVTSTLRINTTTNEIFYCTFRRLDPEENHTAELVIPEL | 0.0059
high affinity PDL-1 molecule L2B6 (ligand) FTVTVPKDLYVVEYGSNMTIECKFPVEKQLDLAALEVHWFMEDKNIVSFVHGEEDLKVQHSSYRQRARLLKDQLSLGNAALQITDVKLQDAGVYRCMISYGGADYKRITVKVNAPYNKINQRIRVVDPVTSEHELTCQAEGYPKAEVIWTSSDHQVLSGKTTTTNSKREEKLFNVTSTLRINTTTNEIFYCTFRRLDPEENHTAELVIPEL | 0.134

Here's the next entry for you.
# binder high affinity PDL-1 molecule L22D5 (ligand) FTVTVPKDLYVVEYGSNMTIECKFPVEKQLDLAALQVHWFMEDKNIFSFVHGEEDLKVQHSSYRQRARLLKDQLSLGNAALQITDVKLQDAGVYRCMISYGGADYKRITVKVNAPYNKINQRILVVDPVTSEHELTCQAEGYPKAEVIWTSSDHQVLSGKTTTTNSKREEKLFNVTSTLRINTTTNEIFYCTFRRLDPEENHTAELVIPEL ; its koff = 0.268
